molecular target: RUNX1 (UniProt Q01196); test: RUNX1 binding intensity (PBM fluorescence) in presence of ETS1, normalised to RUNX1-only experiment (arbitrary fluorescence units); higher = stronger binding; conditions: RUNX1 concentration 2 nM; ETS1 concentration 25 nM
Sequence (Q01196 whole entry): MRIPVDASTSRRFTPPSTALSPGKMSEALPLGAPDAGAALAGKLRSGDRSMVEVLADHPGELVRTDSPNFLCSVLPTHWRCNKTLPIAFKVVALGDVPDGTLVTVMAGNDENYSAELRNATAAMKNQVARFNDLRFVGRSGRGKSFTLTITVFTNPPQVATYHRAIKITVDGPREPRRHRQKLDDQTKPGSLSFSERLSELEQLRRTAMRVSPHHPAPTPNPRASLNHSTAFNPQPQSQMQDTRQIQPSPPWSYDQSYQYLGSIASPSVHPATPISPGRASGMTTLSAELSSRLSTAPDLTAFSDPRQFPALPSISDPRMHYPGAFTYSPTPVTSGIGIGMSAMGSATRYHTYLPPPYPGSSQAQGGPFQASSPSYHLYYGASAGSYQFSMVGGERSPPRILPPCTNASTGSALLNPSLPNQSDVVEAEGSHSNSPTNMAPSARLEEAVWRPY
measure: RUNX1 binding intensity
Answers are plain numbers.

Recorded RUNX1 binding intensity, per entry:
Entry TGCAGCTTCCTGTCTGAGGCTTTGTGGTCCTTTCAT : reported RUNX1 binding intensity = ?
2480

Now try TGAGCTCAGGCCGGAAGCGGTGGATGATGGCACACA .
1560

Now try GCATTGTGCTTCCGCTCGGGGAAAGACCGCTTACGG .
1590

For each entry beneath this line, provide reported RUNX1 binding intensity.
1. AACAAACAGTAGGCAGGAAGTGGTTAAACCGAAAGG
2. TCATGCTGCTTCCTGCCCAACCCGCAGTTCCGATAA

1. 3590
2. 2350

For each entry beneath this line, provide reported RUNX1 binding intensity.
1. CTGTCCGCGACATCCGGGACCTGCGGGACCGCCGAT
2. TCCAGGCATTTCCCCCATGTTGGCTCACCGCACTAT

[1760, 1290]

For each entry beneath this line, provide reported RUNX1 binding intensity.
1. GTTCAGCAGGAAGTGGATGTGGATGTGTGGTTGCCA
2. TGCAATCAGGAAGCCTGCCCCTCTAGAACCACAAAA
3. TTAACCAGACATTTCCTGTGGTCTAAGGTGACCCCA
4. GTCTGCTTAAAAACAGGAAACCACATATCTCCACCC
5. CTACAGGAAGTTCGAACTGGGCGGAGCCCACCGCAG

1290
892
2710
1990
1120

###

Molecular target: ETS1 (UniProt P14921)
Sequence: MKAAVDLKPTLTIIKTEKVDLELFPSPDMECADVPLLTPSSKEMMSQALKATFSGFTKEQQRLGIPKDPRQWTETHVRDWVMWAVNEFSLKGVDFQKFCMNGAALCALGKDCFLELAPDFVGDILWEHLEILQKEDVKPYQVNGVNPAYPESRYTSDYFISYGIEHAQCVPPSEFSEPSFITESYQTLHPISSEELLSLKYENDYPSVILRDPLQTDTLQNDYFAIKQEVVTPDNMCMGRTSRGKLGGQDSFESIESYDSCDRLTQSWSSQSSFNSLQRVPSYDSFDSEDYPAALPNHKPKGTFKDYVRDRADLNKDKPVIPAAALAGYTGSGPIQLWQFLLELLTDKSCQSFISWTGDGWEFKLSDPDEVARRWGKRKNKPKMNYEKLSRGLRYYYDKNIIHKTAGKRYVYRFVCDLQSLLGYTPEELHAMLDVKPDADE
Experiment: TF binding intensity (PBM fluorescence), negative control probe (arbitrary fluorescence units); higher = stronger binding
measure: TF binding intensity
One number for each entry.

Recorded TF binding intensity, per entry:
Entry ACTTTCTATGAGGCTGCCACTCCTGGTACCACACAT (protein concentration 10 nM) : reported TF binding intensity = ?
133

Now try AGACTGCATACTTATAAAGTGGAGTATGCAGATAAT (protein concentration 10 nM) .
119

Now try CCATCGATGAAAAGGCTGCTATCTCTCGCTGATGGG (protein concentration 10 nM) .
139

Read the next record carefully.
Entry GGTATCGAGCTCGGGGGACTGGGCTGCGGGGGACGT (protein concentration 10 nM) : reported TF binding intensity = ?
264

###

target: RUNX1 (UniProt Q01196); assay: RUNX1 binding intensity (PBM fluorescence), RUNX1 alone (arbitrary fluorescence units); higher = stronger binding; settings: RUNX1 concentration 2 nM; ETS1 concentration 0 nM
Each entry gets No if its RUNX1 binding intensity stays under 900, and Yes if its RUNX1 binding intensity is 900 or above.

The examples below pair each entry with its known result.
Decide: RUNX1 binding intensity of CCGGCAGGAAGTTAGCATGGGCGGACCACACGGGGG >= 900?
Yes

Now try TGAGCCCTACTTCCGGTGGTGCTGTGGTCTGCCCCT .
No

Now try CTGCCTTTCCTGCTAGGGTACAAACCACAGCCTTAG .
Yes

Now try TCCCTAAGTCACATCCTGTGGGCAAAGGCCCTAGCA .
No

Now try GGGGCGGCTTCCGGCGGCGTGACCTGACCGCAAGAG .
Yes

Now try GCGCAAGGATCCGGTTTGTTGTGGTGTGGGGAGGGG .
No

Next:
Decide: RUNX1 binding intensity of GACAGCAACTCCACTTCCTGTGGGCGAGGGCCCTGT >= 900?
No

Now try CCAGTGCAGAAACATCCCTCCTGCCGCAGCTTTGTC .
Yes

###

Molecular target: ETS1 (UniProt P14921)
Sequence: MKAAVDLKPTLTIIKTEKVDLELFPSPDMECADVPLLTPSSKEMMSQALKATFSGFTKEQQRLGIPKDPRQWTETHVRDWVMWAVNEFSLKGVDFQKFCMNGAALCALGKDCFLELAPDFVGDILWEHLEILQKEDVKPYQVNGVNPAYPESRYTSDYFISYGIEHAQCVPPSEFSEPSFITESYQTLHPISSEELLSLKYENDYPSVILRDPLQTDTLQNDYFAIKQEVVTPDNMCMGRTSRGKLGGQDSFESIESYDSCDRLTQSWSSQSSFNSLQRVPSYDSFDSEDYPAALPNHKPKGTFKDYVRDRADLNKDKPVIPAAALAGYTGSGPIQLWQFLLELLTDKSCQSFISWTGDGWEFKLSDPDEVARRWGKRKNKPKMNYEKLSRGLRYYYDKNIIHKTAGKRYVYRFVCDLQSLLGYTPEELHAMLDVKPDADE
Assay: ETS1 binding intensity (PBM fluorescence) in presence of RUNX1, normalised to ETS1-only experiment (arbitrary fluorescence units); higher = stronger binding
Conditions: ETS1 concentration 1 nM; RUNX1 concentration 25 nM
Records here are stratified by ETS1 binding intensity; strata: lower level (below 700), middle level (700 to below 5000), upper level (5000 or more)

Into which category would you place CCGCCACCGGAAGCGCCCTCCTAATCCCCGCAGCGC ?
upper level

Now try GGAGGGGCTGGCCGGAAGTGAACCGCAGAGCACGCT .
upper level

Now try AACAAACCGGATGGGGTTCCCACCCGCAATCTTGTC .
middle level

Now try TTCAATCACAGGAAACAGACGTCACCCACAGACCTA .
middle level

Next:
Into which category would you place GGACCGGAAGTAGGTTTCTACCCGACCGCATTTTAC ?
upper level

Now try ACAGATGGTCCGGAACTTCAGAAAACCACTCATTGT .
lower level

Now try GGCCGGAAGCGCTCTCGTTGGCCCTGCGGCGCTGGA .
middle level

###

molecular target: RUNX1 (UniProt Q01196); assay: RUNX1 binding intensity (PBM fluorescence), RUNX1 alone (arbitrary fluorescence units); higher = stronger binding; details: RUNX1 concentration 2 nM; ETS1 concentration 0 nM
Field: RUNX1 binding intensity. Provide a value for each of the sequences that follow.
Give bare numbers.

For each entry beneath this line, provide reported RUNX1 binding intensity.
1. GCCCCCGGAAGCTGTCGCCCCGTGCGGTGTGTGCTG
2. CCTCAAAACCCGGAAACGCCTTGCGGGGCAGTGTGG
3. CAAGCACATTACGGAAGAGGCTGACCGCAAATACGA
4. TGACATCCTCTGAGGCAGCAAGCTGCGGTGAAGTCT
5. GTCACAGGAAAGAAGGAGCCTCGCCTTAACCGCACC

1: 787; 2: 789; 3: 4550; 4: 704; 5: 1170

For each entry beneath this line, provide reported RUNX1 binding intensity.
1. AAGGCGGTACTTCCTCCAGCATTTGCCGCAAGTTAT
2. GTAGAGACAGGAAATTATGTTGGTTTTCTTGCAGAA

1. 768
2. 724

For each entry beneath this line, provide reported RUNX1 binding intensity.
1. CCTCCCTGAGGGGGAAGTGGTTTTTGAGTCTGAGTC
2. ACCGGATGCCGGGGCACCGCCAGATGTGGCCACGAG
3. CCTGTTTCCTGCCATCTGCCCTTCCTTTGTGGTCAA
4. ACCCCAAGCCCAGGATGTGGTTTGGCCACTATTGAG
5. GCACCGTACCCGGAACTGCTCCCTCCCGCAGGCGCA

859
746
3310
859
930

###

Molecular target: ETS1 (UniProt P14921)
Sequence: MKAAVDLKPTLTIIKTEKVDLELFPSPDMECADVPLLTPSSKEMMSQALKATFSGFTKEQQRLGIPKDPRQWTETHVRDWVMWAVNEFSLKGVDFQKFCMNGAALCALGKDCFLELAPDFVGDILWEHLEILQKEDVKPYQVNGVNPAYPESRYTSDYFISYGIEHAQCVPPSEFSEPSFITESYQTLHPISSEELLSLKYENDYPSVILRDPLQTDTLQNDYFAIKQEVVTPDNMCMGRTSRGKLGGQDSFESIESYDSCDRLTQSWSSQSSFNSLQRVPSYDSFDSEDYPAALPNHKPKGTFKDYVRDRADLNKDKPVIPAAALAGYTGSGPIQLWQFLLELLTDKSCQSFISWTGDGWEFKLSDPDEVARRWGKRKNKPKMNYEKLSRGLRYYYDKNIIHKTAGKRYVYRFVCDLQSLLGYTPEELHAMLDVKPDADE
Experiment: ETS1 binding intensity (PBM fluorescence) in presence of RUNX1, normalised to ETS1-only experiment (arbitrary fluorescence units); higher = stronger binding
Settings: ETS1 concentration 1 nM; RUNX1 concentration 25 nM
measure: ETS1 binding intensity
Give bare numbers.

Identify the measured ETS1 binding intensity of GGGGAACGGAAGCTGCTGTCGTTACTGGCGGTTGTA for ETS1 (UniProt P14921).
1320

Now try GAAACAATTTCCTGTACCTCTGTGGTAAAAATGATA .
1650

Now try AGGCCCACCTGCTGCGGATGTGGTCTCTGTGTGTGC .
6240

Now try CTGCCTTGCTTTTCCGGTCGCCGCGGTCCTCTGCGC .
2110

Now try CTTTTCCATGCAGGAAGTGGTTTTTAGAGTGTAGAG .
20100

For each entry beneath this line, provide reported ETS1 binding intensity.
1. GCCACTTCCTGGAAAACAGTAATTACCACACGTCTC
2. CTTCCCTTGCCCCGGAAAAGGGCGGTAAGAGGGAGC
3. CCACTCCAGGAAACTCCTCCAGGTGAGCCCACAACT
4. CCGGGTAGGATCCGGTTGCCTTTCTGCGGTGGAGGA
5. CCTGACTTCCTCCTCCCCCTCCCGCCACAATTCCGC

546
1160
474
798
1620

These measurements were taken from the supplement of paper PMC10681739.
